Test: protein stability index of a GFP-peptide fusion (yeast GPS) (PSI 1-4); higher = more stable; sorted into four equal gates, so the index is relative within each strain
Settings: doa10∆
Give 1 (yes) when the value for protein stability index is at least 3. Give 0 (no) when it is less.

Reported protein stability index reaches at least 3 for QTRAKLLDNEIRIFRSE [RPT5] ? 1 (yes)

Hi, just wondering whether AVALAASDLVLIVIDVV [SNU114] shows protein stability index of 3 or higher. 0 (no)

Identify whether the reported protein stability index of the following sequence is 3 or greater: LRLFINEEGDWSCIVVE [ITC1] 0 (no)

API: above_or_equal(metric=protein stability index, cutoff=3) for item RPDITMYCRPAPSDFSE [GRR1] 0 (no)

Answer whether protein stability index of VEGHLFEIIDEASKKSA [FAS1] is greater than or equal to 3. 1 (yes)

Identify whether the reported protein stability index of the following sequence is 3 or greater: QLNGNETFSTSAHQSPI [SNF2] 1 (yes)

Tell me whether protein stability index is at least 3 here: YNLRSLNLINAKLWFYI [RPN3] 0 (no)

Assess whether reported protein stability index for FQDYLTQQAVNLEKNYL [IRR1] sits at 3 or higher. 0 (no)

Item VDENDEVLLAGFGRKGK [RPS23A] with protein stability index of 3 or above? 0 (no)

Quick check: does MPFWKFFMKNFPFVLKV [SRB8] have protein stability index greater than or equal to 3? 0 (no)

Determine whether this sequence has protein stability index no lower than 3: DDYYKEIIGGGSKSASK [ISW2] 0 (no)

Form field: protein stability index at least 3? Entry: VENGTTSIGIKCNDGVV [PRE10] 0 (no)

Answer whether protein stability index of RAIYSYLSGAIPNQEVL [YDL116W/NUP84] is greater than or equal to 3. 0 (no)

Hi team, for QGPIVADKNCAKLHRIS [PUP1] , is the recorded protein stability index at or above 3? 1 (yes)

Is protein stability index for VQKSTKTFSYKRPSTFY [RPL20A] at or above 3? 0 (no)

Determine whether this sequence has protein stability index no lower than 3: IMDNDPVLFNRQPSLHK [RPO21] 0 (no)

Say whether PSFMLKHHQLFYMLNAG [RPN1] shows protein stability index of 3 or more. 0 (no)

Could you verify whether the entry PGTIVLYAERVQDRGLS [RPS3] shows protein stability index of no less than 3? 0 (no)

API: above_or_equal(metric=protein stability index, cutoff=3) for item MNGNSTNNEQLQQELAT [NUT2] 1 (yes)

Does the sequence YLHDNASKVLLKIFLYL [IRR1] have recorded protein stability index that is 3 or more? 0 (no)

Identify whether the reported protein stability index of the following sequence is 3 or greater: LDERFASRVALNKEKLG [IRR1] 0 (no)

hey, is protein stability index for this one >= 3? LTKAQKYLEQVLDHQRA [RPL17A] 0 (no)

Quick check: does ARWPAKSVKFVQGLLQN [RPL17A] have protein stability index greater than or equal to 3? 0 (no)

For this sequence, is measured protein stability index 3 or higher? RHMALLVDVMTTQGGLT [RPO21] 0 (no)

Would you say TPNTNSNSTPNANQQFL [SWI1] shows protein stability index at minimum 3? 1 (yes)

Confirm if protein stability index reported for the sequence LIEFQPSQGVHYKVPTD [MED6] is 3 or above. 0 (no)

Is reported protein stability index greater than or equal to 3 here: NTFQKTVEPVYQMHIKT [FAS1] 0 (no)

// inclusive: protein stability index at least 3? input: EPNSAKKIRFLQLIIFL [RGR1] 0 (no)

For this sequence, is measured protein stability index 3 or higher? GHNDWVSQVRVVPNEKA [ASC1] 0 (no)

Given the entry EYDTPALFFDPSLNPIP [PRP8] , answer whether its protein stability index meets or surpasses 3. 0 (no)

Could you verify whether the entry FMAFINACAKYGRDDME [ISW2] shows protein stability index of no less than 3? 0 (no)

Entry KSEFDDLSLNIHPIPSV [YMR129W/POM152] : is its protein stability index no less than 3? 0 (no)

State whether the measured protein stability index reaches 3, counting equality as reaching it, for AISTGAKIDVMLTIARL [RPN7] 1 (yes)

Check the entry VPVKLEEIKTVDPASAP [RRP6] : does protein stability index equal or exceed 3? 0 (no)

Dear colleague, could you confirm whether VNWLAYTYLYVRMLASP [BRR2] has protein stability index at or above 3? 0 (no)

For this sequence, is measured protein stability index 3 or higher? LSDRITGNFIIPSGNVW [PRP8] 0 (no)

Determine whether measured protein stability index meets or exceeds 3 for QTIEMITQIVEKDFCTS [SRB8] 0 (no)

In plain terms: is recorded protein stability index at least 3 for EKKDDNSSKPAFSFGAK [YJL041W/NSP1] ? 0 (no)

Could you verify whether the entry RDGVLTVTLNKNREVVQ [RRP45] shows protein stability index of no less than 3? 0 (no)

Determine whether measured protein stability index meets or exceeds 3 for SPLDIYSDEASAQKKRF [RPS2] 0 (no)

# bool: protein stability index of NQNSSTGAGAFGTGQST [YJL041W/NSP1] >= 3 0 (no)

Does the sequence SLSYMAFPNASKKNRPT [RRP40] have recorded protein stability index that is 3 or more? 0 (no)

Test whether the sequence WLWPLCRGELKADIGKP [CDC53] records protein stability index of 3 or higher. 0 (no)

Reported protein stability index at or above 3? FASIPVSNSISRLGEEN [SNU114] 0 (no)

Quick check: does LHKLQRMRLRALETENM [GRR1] have protein stability index greater than or equal to 3? 0 (no)

Hello, I need to know if PNIVEIDLDNDEDDDED [DLS1] has measured protein stability index not below 3. Thanks! 1 (yes)

Quick check, protein stability index >= 3? FYVQDVYKDNLSFIQVR [RPO31] 0 (no)

Has GYDRHITIFSPEGRLYQ [SCL1] a recorded protein stability index greater than or equal to 3? 0 (no)
